Lab note: pKi readings collected with kappa opioid receptor (KOR) (Homo sapiens) for the following compounds.
Sequence (P41145 whole entry): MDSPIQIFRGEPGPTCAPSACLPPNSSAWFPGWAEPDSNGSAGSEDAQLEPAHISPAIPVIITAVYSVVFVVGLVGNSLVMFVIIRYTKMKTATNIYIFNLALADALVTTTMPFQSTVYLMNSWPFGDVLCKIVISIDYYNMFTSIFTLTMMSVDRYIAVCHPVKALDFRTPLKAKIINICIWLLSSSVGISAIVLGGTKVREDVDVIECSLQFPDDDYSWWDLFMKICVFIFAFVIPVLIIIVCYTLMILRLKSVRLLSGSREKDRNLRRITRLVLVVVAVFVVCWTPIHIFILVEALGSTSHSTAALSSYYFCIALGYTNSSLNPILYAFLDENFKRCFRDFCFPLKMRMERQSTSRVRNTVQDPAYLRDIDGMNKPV
pKi: −log10 of the molar value.
Measured property: pKi

CC(C)CCNCc1ccc(Oc2ccc(/C(N)=N/C#N)cn2)cc1 = 7.36
CC(C)CCNCc1ccc(Oc2ccc3c(N)noc3c2)cc1 = 7.32
CC(C)CCNCc1ccc(Oc2ccc(-c3ncc[nH]3)cn2)cc1 = 7.40
